B1: DYRK1B (parent)
chain: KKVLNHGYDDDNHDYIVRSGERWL

Variants of: B1
Assay: protein stability index of a GFP-peptide fusion (GPS, HEK-293T) (PSI 1-6); higher = more stable;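 also: lentivirally expressed fusions sorted by FACS into six bins by GFP to DsRed ratio, PSI derived from sequencing read proportions per bin multiplied by bin number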
Conditions: c terminus: a fixed tail appended
Assign protein stability index to each entry below.
// response body must contain only the number

Exercise: Need protein stability index of `KQVLNHGYDDDNHDYIVRSGERWL` , thanks.
Solution: 3.32

Exercise: Try `KKVLNCGYDDDNHDYIVRSGERWL` next.
Solution: 2.38

Exercise: Queued: `KKVLNHGYDDDNHDYIVRFGERWL`
Solution: 2.29

Exercise: Query `KKWLNHGYDDDNHDYIVRSGERWL` next
Solution: 2.05

Exercise: Now the same for `KKVLNHGHDDDNHDYIVRSGERWL`
Solution: 4.27

Exercise: One more variant: `KKVLNIGYDDDNHDYIVRSGERWL`
Solution: 3.01

Exercise: Similarly, `KKVLNAGYDDDNHDYIVRSGERWL` ?
Solution: 2.81

Exercise: Can you check `KAVLNHGYDDDNHDYIVRSGERWL` next?
Solution: 3.33

Exercise: Again, but for `KKVLNHNYDDDNHDYIVRSGERWL`
Solution: 3.23

Exercise: Continue with `KKVLNHRYDDDNHDYIVRSGERWL`
Solution: 3.31

Exercise: Then `KKVLWHGYDDDNHDYIVRSGERWL` ?
Solution: 2.72

Exercise: Also `KKVLNHGYDDDNHDYIVRSGCRWL` ?
Solution: 2.19

Exercise: Okay, and `KKVLNHGYDDDFHDYIVRSGERWL` ?
Solution: 2.35

Exercise: Quick one: `KKVLNHGYDDDNHDYIVRSYERWL`
Solution: 2.23

Exercise: Thanks! And `KKVLNHGYDMDNHDYIVRSGERWL` ?
Solution: 2.96

Exercise: Item: `KKVLNMGYDDDNHDYIVRSGERWL`
Solution: 2.34

Exercise: Also, `KHVLNHGYDDDNHDYIVRSGERWL` please.
Solution: 3.19

Exercise: Proceed to `KKVLNQGYDDDNHDYIVRSGERWL`
Solution: 3.32

Exercise: Next variant: `KKVLNHGWDDDNHDYIVRSGERWL`
Solution: 2.74

Exercise: Now this one: `KKVLNHMYDDDNHDYIVRSGERWL`
Solution: 3.07

Exercise: Would you kindly repeat that for `KKVRNHGYDDDNHDYIVRSGERWL` ?
Solution: 3.38

Exercise: Same thing, different variant: `KKVLNHGYDDDNHDYIVRSGKRWL`
Solution: 3.1
